test system: MARV (full-length glycoprotein, VSV pseudotype); test: microbe, parasite or virus in culture; format: cell-based, Marburg marburgvirus; details: Vesicular stomatitis virus, Vero, 24 h, read-out: EC50 Pseudotype Assays MARV
Flag rule - EC50 less than 2000 nM flags class 1; the remaining entries get class 0.

{"compound": "C[C@H]1C[C@@H](NC(=O)C23CC4CC(C)(C2)CC(c2ccccc2)(C4)C3)CCN1 (mixture of isomers)", "class-assignment": "class 0"}
{"compound": "CCC12CC3CC(C(=O)N[C@H]4CCN[C@@H](C)C4)(C1)CC(c1ccccc1)(C3)C2 (mixture of isomers)", "class-assignment": "class 0"}
{"compound": "CC12CC3CC(C(=O)N[C@H]4CN5CCC4CC5)(C1)CC(c1ccccc1)(C3)C2 (mixture of isomers)", "class-assignment": "class 1"}
{"compound": "C[C@]12CC3CC(C(=O)N4CCC(N)CC4)(C1)C[C@@](c1ccccc1)(C3)C2", "class-assignment": "class 0"}
{"compound": "C[C@]12CC3CC(CN4CCC(N)CC4)(C1)C[C@@](c1ccccc1)(C3)C2", "class-assignment": "class 1"}
{"compound": "C[C@H]1C[C@@H](NC(=O)C23CC4C[C@](C)(C2)C[C@@](c2ccccc2)(C4)C3)CCN1", "class-assignment": "class 0"}
{"compound": "CCC12CC3CC(C(=O)NC4(C)CCNCC4)(C1)CC(c1ccccc1)(C3)C2 (racemic)", "class-assignment": "class 0"}
{"compound": "C[C@]12CC3CC(C(=O)N[C@H]4CN5CCC4CC5)(C1)C[C@@](c1ccccc1)(C3)C2", "class-assignment": "class 1"}
{"compound": "CCC12CC3CC(C(=O)N[C@@H]4CCNC[C@@H]4F)(C1)CC(c1ccccc1)(C3)C2 (mixture of isomers)", "class-assignment": "class 0"}
{"compound": "CC12CC3CC(CN[C@H]4CC[C@H](N)CC4)(C1)CC(c1ccccc1)(C3)C2 (stereo partly drawn)", "class-assignment": "class 1"}
{"compound": "CCC12CC3CC(C(=O)N4CCC(N)CC4)(C1)CC(c1ccccc1)(C3)C2 (racemic)", "class-assignment": "class 0"}
{"compound": "C[C@@]12CC3CC(C(=O)N[C@H]4CCNC[C@@H]4F)(C1)C[C@](c1ccccc1)(C3)C2", "class-assignment": "class 0"}
{"compound": "CC12CC3CC(C(=O)NC4CC5CNC4C5)(C1)CC(c1ccccc1)(C3)C2 (racemic)", "class-assignment": "class 0"}
{"compound": "C[C@@]12CC3CC(CN4CCC(N)CC4)(C1)C[C@](c1ccccc1)(C3)C2", "class-assignment": "class 1"}
{"compound": "C[C@@]12CC3CC(C(=O)N[C@@H]4CCNC[C@H]4F)(C1)C[C@](c1ccccc1)(C3)C2", "class-assignment": "class 0"}

---

experiment: in vivo; conditions: male, CD-1, mouse, po, 10 mg/kg
outcome-measure: AUC(0-t) (ng·h/mL)

{"compound": "CC12CC3CC(C(=O)N[C@H]4CC[C@@H](N)CC4)(C1)CC(c1ccccc1)(C3)C2.Cl (mixture of isomers)", "outcome-measure": "AUC(0-t)", "quantitative-readout": 3590}

---

# CC50 listing for each entry below
experiment: in vitro; conditions: African green monkey, Cytotox CC50

{"compound": "CC12CC3CC(CN4CCC(N)CC4)(C1)CC(c1ccccc1)(C3)C2 (stereo not drawn) [Example A69]", "CC50 / µM": 2.2}
{"compound": "CC12CC3CC(C(=O)N4CC5(CCNCC5)C4)(C1)CC(c1ccccc1)(C3)C2 (racemic) [Example A44]", "CC50 / µM": 27.2}
{"compound": "C[C@@]12CC3CC(C(=O)N4CCC5(CCCN5)CC4)(C1)C[C@](c1ccccc1)(C3)C2 [Example C10]", "CC50 / µM": 12.7}
{"compound": "C[C@H]1C[C@@H](NC(=O)C23CC4C[C@@](C)(C2)C[C@](c2ccccc2)(C4)C3)CCN1 [Example B4]", "CC50 / µM": 22.5}
{"compound": "CCC12CC3CC(CN[C@H]4CC[C@H](N)CC4)(C1)CC(c1ccccc1)(C3)C2 (stereo partly drawn) [Example A66]", "CC50 / µM": 4.06}
{"compound": "CCC12CC3CC(C(=O)N[C@@H]4CCNC[C@@H]4F)(C1)CC(c1ccccc1)(C3)C2 (mixture of isomers) [Example A23]", "CC50 / µM": 7.8}
{"compound": "CCOCC12CC3CC(C(=O)N[C@H]4CC[C@@H](N)CC4)(C1)CC(c1ccccc1)(C3)C2 (mixture of isomers) [Example A29]", "CC50 / µM": 16.3}
{"compound": "CC12CC3CC(C(=O)N4C[C@H]5CNC[C@H]5C4)(C1)CC(c1ccccc1)(C3)C2 (mixture of isomers) [Example A45]", "CC50 / µM": 30.6}
{"compound": "CC12CC3CC(C(=O)N[C@@H]4CCNC[C@H]4F)(C1)CC(c1ccccc1)(C3)C2 (mixture of isomers) [Example A5]", "CC50 / µM": 11.3}
{"compound": "CCC12CC3CC(C(=O)NC4(C)CCNCC4)(C1)CC(c1ccccc1)(C3)C2 (racemic) [Example A26]", "CC50 / µM": 6.7}
{"compound": "C[C@@]12CC3CC(C(=O)N[C@H]4CC[C@@H](N)CC4)(C1)C[C@](c1ccccc1)(C3)C2 [Example C2]", "CC50 / µM": 25.5}
{"compound": "CC12CC3CC(C(=O)N4CCC(N)(CO)CC4)(C1)CC(c1ccccc1)(C3)C2 (racemic) [Example A46]", "CC50 / µM": 12.2}
{"compound": "CC12CC3CC(C(=O)N4CCC[C@@H](N)C4)(C1)CC(c1ccccc1)(C3)C2 (mixture of isomers) [Example A57]", "CC50 / µM": 7.88}
{"compound": "CC1(C)CN(C(=O)C23CC4C[C@](C)(C2)C[C@@](c2ccccc2)(C4)C3)CCC1N (stereo partly drawn) [Example C8]", "CC50 / µM": 12.4}
{"compound": "CC12CC3CC(C(=O)N4C5CCC4CC(N)C5)(C1)CC(c1ccccc1)(C3)C2 (racemic) [Example A42]", "CC50 / µM": 11.8}
